- TEST_CONTEXT: 293.15 K
MEASURED_PROPERTY: surface tension liquid-gas (mN/m)

CCCCO: 24.78
CCCCCC: 18.52
CCO: 22.28
CCC(C)O (centres undefined): 23.56

* * *

- TEST_CONTEXT: 283.15 K
MEASURED_PROPERTY: surface tension liquid-gas (mN/m)

CCO: 23.12
CCC(C)O (centres undefined): 24.37
CCCCO: 25.55
CCCCCC: 19.63

* * *

- TEST_CONTEXT: 313.15 K
MEASURED_PROPERTY: surface tension liquid-gas (mN/m)

CCCCCC: 16.47
CCC(C)O (centres undefined): 21.97
CCCCO: 23.15
CCO: 20.66

* * *

- TEST_CONTEXT: 288.15 K
MEASURED_PROPERTY: surface tension liquid-gas (mN/m)

CCC(C)O (centres undefined): 23.95
CCCCCC: 19.04
CCO: 22.75
CCCCO: 25.12

* * *

- TEST_CONTEXT: 298.15 K
MEASURED_PROPERTY: surface tension liquid-gas (mN/m)

CCO [ethanol]: 21.86
CCC(C)O (centres undefined) [butan-2-ol]: 23.08
CCCCO [butan-1-ol]: 24.25
CCCCCC [hexane]: 18.06

* * *

- TEST_CONTEXT: 308.15 K
MEASURED_PROPERTY: surface tension liquid-gas (mN/m)

CCC(C)O (centres undefined): 22.39
CCCCCC: 16.74
CCO: 21.15
CCCCO: 23.55

* * *

- TEST_CONTEXT: 303.15 K
MEASURED_PROPERTY: surface tension liquid-gas (mN/m)

CCCCO [butan-1-ol]: 23.95
CCCCCC [hexane]: 17.53
CCC(C)O (centres undefined) [butan-2-ol]: 22.75
CCO [ethanol]: 21.49

The reported measurements were obtained from the NIST ThermoML archive (doi:10.1021/je700215z).
